assayed_system: Intestinal-type alkaline phosphatase (Homo sapiens) (UniProt P09923)
Sequence (P09923 whole entry, looked up): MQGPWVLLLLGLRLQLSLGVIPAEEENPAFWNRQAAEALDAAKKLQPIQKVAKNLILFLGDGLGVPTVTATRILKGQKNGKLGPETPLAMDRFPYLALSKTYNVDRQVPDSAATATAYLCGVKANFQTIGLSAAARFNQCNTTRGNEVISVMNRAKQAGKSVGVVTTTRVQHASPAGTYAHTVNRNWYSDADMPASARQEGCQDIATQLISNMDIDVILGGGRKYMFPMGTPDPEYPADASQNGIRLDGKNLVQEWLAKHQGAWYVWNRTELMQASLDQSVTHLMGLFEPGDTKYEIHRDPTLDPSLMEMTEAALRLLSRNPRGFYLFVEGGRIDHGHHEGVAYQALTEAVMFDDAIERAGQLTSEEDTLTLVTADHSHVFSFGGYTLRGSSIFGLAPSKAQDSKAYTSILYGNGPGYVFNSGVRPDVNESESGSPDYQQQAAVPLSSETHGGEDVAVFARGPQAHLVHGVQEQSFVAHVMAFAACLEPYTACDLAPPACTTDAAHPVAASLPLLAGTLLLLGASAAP
procedure_details: blockers of intestinal alkaline phosphatase activity – biochemical, luminescence, uHTS, primary screen (AID 2544);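 also: plate controls were DMSO wells with enzyme for no effect and no-enzyme buffer wells for full effect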
reported_conditions: purified IAP, CDP-Star luminescence, 30 min; at 10 µM; stronger effect = higher value
Among all 330,000 compounds or so, about 390 (0.12%) were called active. Shown is part of a subset that was picked to be rich in actives.

compound	value_unit	inhibition
CCn1c(C)nc2c1C(=O)c1ccccc1C2=O	%	1.5
Cc1c(C=O)c2ccccn2c1C(=O)c1ccncc1	%	35.9
COc1cccc(CNS(=O)(=O)c2ccc3c(c2)CC(C)N3C(=O)C2CCC2)c1 (stereo unspecified)	%	4.9
Cc1nc(-c2ccc(F)cc2)c(CC(=O)Nc2cc(S(=O)(=O)N3CCCCC3)ccc2C)s1	%	-13.3
Cc1ccc(Cn2c(=N)c(S(=O)(=O)c3ccc(C)cc3)cc3c(=O)n4ccccc4nc32)cc1	%	-7.4
CSC1=NC2(C)CCCCC2C12C=CC(=O)C=C2 (stereo unspecified)	%	12.2
Cc1ccc(S(=O)(=O)Nc2ccc(F)c(S(=O)(=O)N3CCOCC3)c2)cc1	%	-6.7
Cc1cc(C)c2c(n1)sc1c(=O)n(-c3ccccc3)c(=O)[nH]c12	%	5.6
CC(=O)c1ccc(NC(=O)C2CCCN2S(=O)(=O)c2cccs2)cc1 (stereo unspecified)	%	37.2
Cc1cc2ccccn2c1C(=O)c1cccc(F)c1	%	18.3
Cc1ccc(OCCNC(=O)CNC(=O)c2ccc(C)c(C)c2)cc1	%	-7.8
Cc1c(C(=O)NNC(=O)c2ccncc2)oc2ccccc12	%	-50.2
COc1ccc(N2CCN(C(=O)COC(=O)c3cccc(S(=O)(=O)Nc4ccccc4OC)c3)CC2)cc1	%	9.2
Cc1ccc(N=C2SCCCN2C(=O)c2cccc(N3C(=O)CCC3=O)c2)cc1Cl	%	-21.5
COc1ccc2c(c1OC)C(=O)N(c1ncn[nH]1)C2	%	39.6
O=C(c1cccs1)N1CCC(c2nc3ccccc3s2)CC1	%	22.5
COc1cccc(CNS(=O)(=O)c2ccc3c(c2)N(C(C)=O)CCS3)c1	%	38.6
COc1ccc2c(c1OC)C(=O)N(c1ccc(O)cc1)C2	%	-4.8
Cc1ccc(NC(=O)COC(=O)C2C3CC4OC(=O)C2C4C3)cc1Cl (stereo unspecified)	%	5.1
C[N+]1(CCNC(=O)/C=N/O)CCCCC1	%	-34.9
Cc1csc(NC(=O)CSc2nc(=O)n(CCCN(C)C)c3c2CCC3)n1	%	6.4
Cc1cccc(C(=O)Nc2ccc(C(=O)/C=C/c3cccs3)cc2)c1	%	-7.8
COc1c(O)cc2oc(-c3ccc(O)c(O)c3)cc(=O)c2c1O	%	40.1
O=C(CNC(=O)c1n[nH]c2ccccc12)Nc1cc(Cl)ccc1Cl	%	-16.2
O=C1N(c2ccc(Cl)cc2)C(c2ccc(Cl)cc2)N2CCCN12 (stereo unspecified)	%	0.2
O=C(COC(=O)Cc1c[nH]c2ccccc12)NCCc1ccccc1	%	14.4
CCOC(=O)c1[nH]cnc1C(=O)NC1CCCCC1	%	-28.7
C/C(Cc1ccccc1)=N\NC(=O)CNC(=O)c1ccc2c(c1)OCCO2	%	1.8
CN(C)/C=C1\C=C(c2ccccc2)OC1=O	%	0.7
O=c1[nH]c(/C=C\c2cccc(C(F)(F)F)c2)nc(O)c1[N+](=O)[O-]	%	-10.6
CC(=O)c1cccc(NC(=O)C2CCCN2S(=O)(=O)c2cccc3nsnc23)c1 (stereo unspecified)	%	18.3
